- testProtocol: Plasma HFPO-TeA dosimetry
- Assay type: in vivo, Sprague Dawley rats
- statedConditions: male, Sprague Dawley, rat, plasma, oral, 17 mg/kg/day, M, 2 h after first dose, mean ± SD n=4; read-out: 2 h Plasma Conc.
metricName: concentration at 2 h

Qu. Sample O=C(O)C(F)(OC(F)(F)C(F)(OC(F)(F)C(F)(OC(F)(F)C(F)(F)C(F)(F)F)C(F)(F)F)C(F)(F)F)C(F)(F)F (stereo not shown) [HFPO-TeA] — what was its concentration at 2 h?
Ans. 126 µM

----------
- testProtocol: Liver-to-plasma partitioning (Kp)
- Format: in vivo, Sprague Dawley rats
- statedConditions: female, Sprague Dawley, rat, oral, 0.3 mg/kg/day, F, 5 days, mean ± SD n=4, read-out: Liver Kp (liver-to-plasma ratio)
metricName: Kp at 120 h
Please respond with just the number, no unit label.

Qu. Sample O=C(O)C(F)(OC(F)(F)C(F)(OC(F)(F)C(F)(OC(F)(F)C(F)(F)C(F)(F)F)C(F)(F)F)C(F)(F)F)C(F)(F)F (stereo not shown) [HFPO-TeA] — what was its Kp at 120 h?
Ans. 7.81
